B1: library; numbered along this chain (parent)
chain: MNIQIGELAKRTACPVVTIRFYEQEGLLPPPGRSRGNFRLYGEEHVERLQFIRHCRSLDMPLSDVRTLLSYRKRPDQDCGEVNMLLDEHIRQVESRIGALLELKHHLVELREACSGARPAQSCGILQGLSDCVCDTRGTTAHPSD

- Variants of: B1
- measurement.description: sfGFP reporter fluorescence (15 h) (µM FITC); higher = higher leak
- measurement.conditions: library round: Round 0; ligand: none
Use 1 (yes) when the recorded sfGFP reporter fluorescence is no lower than 0.06; use 0 (no) when it is lower.

mutation.label: G128I
group.label: 1 (yes)

Asked: Threshold query (sfGFP reporter fluorescence >= 0.06) on G128K
Given back: 1 (yes)

Asked: Threshold query (sfGFP reporter fluorescence >= 0.06) on H89R
Given back: 1 (yes)

Asked: Threshold query (sfGFP reporter fluorescence >= 0.06) on V16L
Given back: 1 (yes)

Asked: Threshold query (sfGFP reporter fluorescence >= 0.06) on R20T
Given back: 1 (yes)
